B1: MFF (parent)
chain: DDLTVVDAASLRRQIIKLNRRLQL

variants of: B1; test: protein stability index of a GFP-peptide fusion (GPS, HEK-293T) (PSI 1-6); higher = more stable; conditions: c terminus: a fixed tail appended;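 also: lentivirally expressed fusions sorted by FACS into six bins by GFP to DsRed ratio, PSI derived from sequencing read proportions per bin multiplied by bin number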
Below, each of the variants is paired with its reported protein stability index value.
READOUT LABEL: protein stability index

1. A9P = 2.12
2. R13F = 1.69
3. R20I = 2.07
4. V5Q = 2.26
5. V6K = 2.35
6. V5H = 2.69
